Just for reference, the supplement of paper PMC11451515 is where these values come from.

Tested on: NOMO1
experiment.notes: cell viability relative to DMSO control; higher = less cytotoxic
condition.details: HPLM + 10% dialyzed FBS; 48 h; 15.4 µM
In this section we review reported cell viability values for a set of molecules.
The reply should be a number in %, with the unit left off.

Examples from the recorded data:
| structure.string | recorded.metric | measured.result |
| --- | --- | --- |
| CN(C)C1=CC(=CC=C1)C\2=C\3C(=O)N(NC3=C/C(=O)N2C)C4=CC=CC=C4Cl | cell viability | 4.4 |
| Cc1nn(C)c(COc2ccc(N3CCN([S+](=O)([O-])N(C)C)CC3)cc2)c1-c1cccc2c(CCCOc3cccc4ccccc34)c(C(=O)O)n(CCN3CCOCC3)c12 | cell viability | 36.8 |
| O=C(Nc1c[nH]nc1-c1nc2cc(CN3CCOCC3)ccc2[nH]1)NC1CC1 | cell viability | 51 |

Consider the additional molecule presented here.
-- ask Report cell viability for Cc1cc(OCCC[S+](C)(=O)[O-])cc(C)c1-c1cccc(COc2ccc3c(c2)OC[C@H]3CC(=O)O)c1
-- reply 92.8

----------
System: SEM cells
experiment.notes: cell viability relative to DMSO control; higher = less cytotoxic
condition.details: RPMI 5 mM glucose + 10% dialyzed FBS; 48 h; 0.19 µM
In this section we review reported cell viability values for a set of compounds.
The reply should be a number in %, with the unit left off.

Examples from the recorded data:
| compound | target.of.assay | recorded.metric | measured.result |
| --- | --- | --- | --- |
| CC(C)(F)C[C@H](N[C@@H](c1ccc(-c2ccc([S+](C)(=O)[O-])cc2)cc1)C(F)(F)F)C(=O)NC1(C#N)CC1 | SEM cells | cell viability | 126 |
| COc1cc([C@@H]2c3cc4c(cc3[C@H](O)[C@H]3COC(=O)[C@@H]23)OCO4)cc(OC)c1OC | SEM cells | cell viability | 63 |
| N[C@H]2CN(CC12CC1)c3c(F)cc4c(c3Cl)[N@@](C=C(C4=O)C(=O)O)C5C[C@H]5F (some centres undefined) | SEM cells | cell viability | 92.5 |

Consider the additional compound presented here.
-- ask Report cell viability for C=C1C(=O)OC(CCCCCCCC)C1C(=O)O (centres undefined)
-- reply 128

----------
Test system: NOMO1
experiment.notes: cell viability relative to DMSO control; higher = less cytotoxic
condition.details: RPMI 5 mM glucose + 10% dialyzed FBS; 48 h; 0.00234 µM
In this section we review reported cell viability values for a set of molecules.
The reply should be a number in %, with the unit left off.

Examples from the recorded data:
| structure.string | cell viability (%) |
| --- | --- |
| C[C@@H]1CCN(C(=O)CC#N)C[C@@H]1N(C)c1ncnc2[nH]ccc12 | 89.1 |
| Cc1c(-c2cccc3c(CCCOc4cccc5ccccc45)c(C(=O)O)n(Cc4cccnc4)c23)c(COc2ccc(N3CCN([S+](=O)([O-])N(C)C)CC3)cc2)nn1C | 97.1 |
| CCn1c(-c2nonc2N)nc2c(C#CC(C)(C)O)ncc(OC[C@H]3CCCNC3)c21 | 96.1 |
| C[C@@H]1O[C@@H](O[C@H]2C[C@@H](O)[C@]3(CO)[C@H]4[C@H](O)C[C@]5(C)[C@@H](C6=CC(=O)OC6)CC[C@]5(O)[C@@H]4CC[C@]3(O)C2)[C@H](O)[C@H](O)[C@H]1O | 109 |
| O=C(CCc1ccc(O)cc1)c1c(O)cc(O)cc1O | 101 |

-- ask Report cell viability for CC(C)(S)[C@@H](N)C(=O)O
-- reply 94.7

-- ask Report cell viability for CC1=C(/C=C/C(C)=C/C=C/C(C)=C\C(=O)O)C(C)(C)CCC1
-- reply 90.6

-- ask Report cell viability for CCN(CC)CCOc1ccc(Cc2ccccc2)cc1
-- reply 96

----------
Tested on: NOMO1
experiment.notes: cell viability relative to DMSO control; higher = less cytotoxic
condition.details: RPMI 5 mM glucose + 10% FBS; 48 h; 15.4 µM
recorded.metric: cell viability (%)
The reply should be a number in %, with the unit left off.

| compound | measured.result |
| --- | --- |
| CCCC(C)(COC(N)=O)COC(=O)NC(C)C (centres undefined) | 150 |
| Cc1nn(C)c(COc2ccc(N3CCN([S+](=O)([O-])N(C)C)CC3)cc2)c1-c1cccc2c(CCCOc3cccc4ccccc34)c(C(=O)O)n(CCN3CCOCC3)c12 | 108 |
| O=C/1NC(=O)C(=C1C2=CN=C3C=CC=C[N]23)/C4=C[N]5CCN(CC6=C5C4=CC=C6)C(=O)N7CCOCC7 | 128 |

-- ask Report cell viability for CN(C)c1ccc2nc3ccc(N(C)C)cc3[s+]c2c1
-- reply 7.62

----------
System: NOMO1
experiment.notes: AUC of viability dose-response curve (% viability x log10 dose units); higher = less sensitive
condition.details: RPMI 5 mM glucose + 10% FBS; 48 h
recorded.metric: AUC of viability dose-response curve
Give the figure by itself; no unit, no explanation.

-- ask Report AUC of viability dose-response curve for O=C(CC12CC3CC(CC(C3)C1)C2)Nc1cccc2nc(NCCNCCO)ccc12
-- reply 406

-- ask Report AUC of viability dose-response curve for COc1ccc(C(=O)N2CCCC2=O)cc1
-- reply 456

----------
System: P12-Ichikawa
experiment.notes: cell viability relative to DMSO control; higher = less cytotoxic
condition.details: HPLM + 10% dialyzed FBS; 48 h; 0.000781 µM
recorded.metric: cell viability (%)
The reply should be a number in %, with the unit left off.

-- ask System P12-Ichikawa. Read-out cell viability. Item N[C@H]2CN(CC12CC1)c3c(F)cc4c(c3Cl)[N@@](C=C(C4=O)C(=O)O)C5C[C@H]5F (some centres undefined) . Report value.
-- reply 97.7

-- ask System P12-Ichikawa. Read-out cell viability. Item NC(=O)[C@H]1CCS[C@@H]2C[C@]3(CCCN3C(=O)Cc3ccc(NC(=O)COc4ccc(Cl)cc4Cl)cc3)C(=O)N12 . Report value.
-- reply 113

-- ask System P12-Ichikawa. Read-out cell viability. Item Cc1cc(O)c2c(c1)C(=O)c1cccc(O)c1C2=O . Report value.
-- reply 112

----------
Test system: P12-Ichikawa
experiment.notes: cell viability relative to DMSO control; higher = less cytotoxic
condition.details: RPMI 5 mM glucose + 10% FBS; 48 h; 1.71 µM
Cut-off 90% on cell viability: below means Condition met, at or above means Condition not met.

Field: example entries. Status: answers known.
| molecule | group.label |
| --- | --- |
| CCc1cc(C(N)=S)ccn1 | Condition not met |
| OC1=CC=C(C=C1)\C2=C\OC3=C(C(=CC(=C3)O)O)C2=O | Condition not met |
| Cc1ccc(C(=O)Nc2cccc(C(F)(F)F)c2)cc1-c1ccc2nc(NCCN3CCOCC3)ncc2c1 | Condition not met |
| COc1cccc2c1C(=O)c1c(O)c3c(c(O)c1C2=O)C[C@@](O)(C(=O)CO)C[C@@H]3O[C@H]1C[C@H](N)[C@H](O[C@H]2CCCCO2)[C@H](C)O1 | Condition met |
| O=C(CCCCCCC(=O)Nc1ccc([C@H]2O[C@@H](CSc3nc(-c4ccccc4)c(-c4ccccc4)o3)C[C@@H](c3ccc(CO)cc3)O2)cc1)NO | Condition not met |

-- ask For this molecule, is cell viability lower than 90%? C/C(=N\NC(=S)N1CCC1)c1ccccn1
-- reply Condition met

-- ask For this molecule, is cell viability lower than 90%? OC1=CC2=C(C=C1)C(=O)\C(=C(O2)\C3=CC(=C(O)C=C3)O)O
-- reply Condition met

-- ask For this molecule, is cell viability lower than 90%? Cc1ccc([N+](=O)[O-])cc1[S+](=O)([O-])N(C)/N=C/c1cnc2ccc(Br)cn12
-- reply Condition met

-- ask For this molecule, is cell viability lower than 90%? CCN(CCO)CCCOc1ccc2c(Nc3cc(CC(=O)Nc4cccc(F)c4)[nH]n3)ncnc2c1
-- reply Condition met

-- ask For this molecule, is cell viability lower than 90%? N[S+](=O)([O-])c1cc2c(cc1Cl)NC(C(Cl)Cl)N[S+]2(=O)[O-] (configuration not stated)
-- reply Condition not met

-- ask For this molecule, is cell viability lower than 90%? C=C1C(=O)OC(CCCCCCCC)C1C(=O)O (configuration not stated)
-- reply Condition not met

-- ask For this molecule, is cell viability lower than 90%? Cc1nn(C)c(COc2ccc(N3CCN([S+](=O)([O-])N(C)C)CC3)cc2)c1-c1cccc2c(CCCOc3cccc4ccccc34)c(C(=O)O)n(CCN3CCOCC3)c12
-- reply Condition not met

----------
System: P12-Ichikawa
experiment.notes: cell viability relative to DMSO control; higher = less cytotoxic
condition.details: RPMI 5 mM glucose + 10% dialyzed FBS; 48 h; 1.71 µM
Cut-off 90% on cell viability: below means yes (1), at or above means no (0).

Field: example entries. Status: answers known.
| compound | group.label |
| --- | --- |
| OC1=CC=C(C=C1)\C2=C\OC3=C(C(=CC(=C3)O)O)C2=O | no (0) |
| C/C(=N\NC(=S)N1CCC1)c1ccccn1 | yes (1) |
| CC(=O)N[C@@H]1[C@@H](NC(N)=N)\C=C(/O[C@H]1[C@H](O)[C@H](O)CO)C(O)=O | no (0) |
| NC(=O)[C@H]1CCS[C@@H]2C[C@]3(CCCN3C(=O)Cc3ccc(NC(=O)COc4ccc(Cl)cc4Cl)cc3)C(=O)N12 | yes (1) |
| CC[C@@H]1[C@@H](C)O[C@@](O)([C@@H](C)[C@H](O)[C@H](C)[C@H]2OC(=O)/C=C/C=C/[C@H](C)[C@@H]([C@@H](C)[C@@H](O)[C@H](C)[C@@]3(O)C[C@@H](O[C@H]4C[C@H](O)[C@H](O)[C@H](C)O4)[C@H](CC)[C@@H](C)O3)OC(=O)/C=C/C=C/[C@@H]2C)C[C@H]1O[C@H]1C[C@H](O)[C@H](O)[C@H](C)O1 | no (0) |

For the next question, use this compound.
-- ask For this compound, is cell viability lower than 90%? CC1(CN2CCC(n3c(=O)[nH]c4ccccc43)CC2)OCc2ccccc2-n2cccc21 (stereo not drawn)
-- reply no (0)
